# assay details: Plasma protein binding (unbound fraction) by equilibrium dialysis and LC-MS/MS, samples 1 and 24 hours postdose
# Type: in vitro ADME
# condition info: human, oral, 10 mg, lemborexant 10 mg single oral dose, mild hepatic impairment (n = 8), geometric mean (% CV)
readout kind: fraction unbound
Response field accepts a number only; no unit should be typed.

Given Cc1ncc(OC[C@@]2(c3cccc(F)c3)C[C@H]2C(=O)Nc2ccc(F)cn2)c(C)n1 , state its recorded fraction unbound. 0.063

* * *

# assay details: Single-dose pharmacokinetic study of lemborexant and metabolites M4, M9, M10 in subjects with mild or moderate hepatic impairment and healthy controls (plasma, LC-MS/MS)
# Format: in vivo, human
# condition info: human, plasma, po, 10 mg, lemborexant 10 mg single oral dose; moderate hepatic impairment (lemborexant n = 6); geometric mean (% CV)
readout kind: half-life (h)
Only the number, expressed in h, is required.

Looking for the measured half-life of Cc1ncc(OC[C@@]2(c3cccc(F)c3)C[C@H]2C(=O)Nc2ccc(F)cn2)c(C)n1 [lemborexant] , can you help? 105
